# assay.summary: Log P/D by shake-flask method (1-octanol/buffer, HPLC)
# Format: physicochemical
# experimental.conditions: 1-octanol/buffer, pH 1.5; read-out: Log D Rep.1
parameter: logD

1) Cc1cc(C)c(-c2ccc(NC(=O)[C@H](Cc3ccc(C(=O)NCCS(=O)(=O)[O-])cc3)c3ccc(-c4ccc(C(C)(C)C)cc4)cc3)cc2)c(C)c1.[Na+] [Polymorph Form A] :: > 4.32

====

# assay.summary: Aqueous solubility, 24 hours at 25° C., HPLC
# Format: physicochemical
# experimental.conditions: pH 7.4 USP buffer (50 mM), 25 °C, pH 7.4, aqueous buffer, thermodynamic from solid, pH 7.4 buffer; initial pH 7.43, final pH 7.46; 24 hours at 25° C.; n = 2
parameter: solubility at 24 h

1) Cc1cc(C)c(-c2ccc(NC(=O)[C@H](Cc3ccc(C(=O)NCCS(=O)(=O)[O-])cc3)c3ccc(-c4ccc(C(C)(C)C)cc4)cc3)cc2)c(C)c1.[Na+] [Polymorph Form A] :: < 100 µg/mL

====

# assay.summary: Aqueous solubility, 24 hours at 25° C., HPLC
# Type: physicochemical
# experimental.conditions: 0.1N HCl, 25 °C, pH 1.08, simulated gastric fluid, thermodynamic from solid; initial pH 1.02, final pH 1.08; 24 hours at 25° C.; n = 2
parameter: solubility at 24 h

1. Cc1cc(C)c(-c2ccc(NC(=O)[C@H](Cc3ccc(C(=O)NCCS(=O)(=O)[O-])cc3)c3ccc(-c4ccc(C(C)(C)C)cc4)cc3)cc2)c(C)c1.[Na+] [Polymorph Form A] :: < 100 µg/mL

====

# assay.summary: Log P/D by shake-flask method (1-octanol/buffer, HPLC)
# Assay type: physicochemical
# experimental.conditions: 1-octanol/buffer, pH 7.4; read-out: Log D Rep.1
parameter: logD

1. Cc1cc(C)c(-c2ccc(NC(=O)[C@H](Cc3ccc(C(=O)NCCS(=O)(=O)[O-])cc3)c3ccc(-c4ccc(C(C)(C)C)cc4)cc3)cc2)c(C)c1.[Na+] [Polymorph Form A] :: > 4.32

Hello, the source for this data is patent US12208071B2, in case you need it.
